Biological target: UniProt:Q92918
Experiment: Assay for in vitro inhibitory activity against HPK1 kinase
Format: biochemical
Settings: HPK1 1 ng/μL, ATP 1 mM, STK Substrate 1-biotin 500 nM
The reader will find reported IC50 values listed item by item below.
MEASURED ATTRIBUTE: IC50 (nM)

| MOLECULE | ASSAY TARGET | ASSAY RESULT |
| --- | --- | --- |
| CN(C)Cc1nc(Nc2ccc(-c3cnn4c3CC3(CC4)CC3)c3c2C(=O)NC3)ccc1[C@@H]1CCN(C)C(=O)C1 [I-71] | UniProt:Q92918 | 3.6 |
| CN(C)Cc1nc(Nc2ccc(-c3nnc4cc5c(cn34)CCC5)c3c2C(=O)NC3)ccc1C1CCOCC1 [Compound I-27] | UniProt:Q92918 | 23 |
| CN(C)Cc1nc(Nc2ccc(-c3ncnc4c3c3c(n4C)CCC3)c3c2C(=O)NC3)ccc1C1CCOCC1 [Compound I-20] | UniProt:Q92918 | 3.2 |
| CN(C)Cc1nc(Nc2ccc(-c3cnn4c3CC3(CC3)C4)c3c2C(=O)NC3)ccc1N1CCN(C)C(=O)C1 [Compound I-75] | UniProt:Q92918 | 3.4 |
| CN(C)Cc1nc(Nc2cnc(-c3ccnc4c3c3c(n4C)CCC3)c3c2C(=O)NC3)ccc1C1CCOCC1 [Compound I-6] | UniProt:Q92918 | 2.5 |
| CN(C)Cc1nc(Nc2ccc(-c3nnc4ccc5occc5n34)c3c2C(=O)NC3)ccc1C1CCOCC1 [Compound I-33] | UniProt:Q92918 | 2.9 |
| CN(C)Cc1nc(Nc2ccc(-c3cnc4ccc5c(n34)OCC5)c3c2C(=O)NC3)ccc1C1CCOCC1 [Compound I-44] | UniProt:Q92918 | 3.5 |
| CN(C)Cc1nc(Nc2ccc(-c3ncnc4[nH]c5ccccc5c34)c3c2C(=O)NC3)ccc1C1CCOCC1 [Compound I-22] | UniProt:Q92918 | 7.5 |
| CN(C)Cc1nc(Nc2ccc(-c3cnn4c3CC3(CC3)C4)c3c2C(=O)NC3)ccc1C1CCN(C)CC1 [Compound I-78] | UniProt:Q92918 | 2.3 |
| CN(C)Cc1nc(Nc2ccc(-c3ccnc4c3cc3n4CCC3)c3c2C(=O)NC3)ccc1C1CCN(C)C(=O)C1 (centres unmarked) [Compound I-82] | UniProt:Q92918 | 3 |
| CN(C)Cc1nc(Nc2ccc(-c3ccnc4c3c3c(n4C)CCC3)c3c2C(=O)NC3)ccc1C1CCOC1 (centres unmarked) [Compound I-8] | UniProt:Q92918 | 3.1 |
| CN(C)Cc1nc(Nc2ccc(-c3cnn4ccc5ccoc5c34)c3c2C(=O)NC3)ccc1C1CCOCC1 [Compound I-11] | UniProt:Q92918 | 1.6 |
| CN(C)Cc1nc(Nc2ccc(-c3cnc4cnc5occc5n34)c3c2C(=O)NC3)ccc1[C@@H]1CCN(C)C(=O)C1 [Compound I-68] | UniProt:Q92918 | 7.7 |
| CN(C)Cc1nc(Nc2ccc(-c3cnc4ccc5occc5n34)c3c2C(=O)NC3)ccc1[C@@H]1CCN(C)C(=O)C1 [Compound I-73] | UniProt:Q92918 | 2.9 |

---

The reader will find reported IC50 values listed item by item below.
Target: HPK1 kinase (Homo sapiens (Human), UniProt Q92918)
Sequence (Q92918 whole entry): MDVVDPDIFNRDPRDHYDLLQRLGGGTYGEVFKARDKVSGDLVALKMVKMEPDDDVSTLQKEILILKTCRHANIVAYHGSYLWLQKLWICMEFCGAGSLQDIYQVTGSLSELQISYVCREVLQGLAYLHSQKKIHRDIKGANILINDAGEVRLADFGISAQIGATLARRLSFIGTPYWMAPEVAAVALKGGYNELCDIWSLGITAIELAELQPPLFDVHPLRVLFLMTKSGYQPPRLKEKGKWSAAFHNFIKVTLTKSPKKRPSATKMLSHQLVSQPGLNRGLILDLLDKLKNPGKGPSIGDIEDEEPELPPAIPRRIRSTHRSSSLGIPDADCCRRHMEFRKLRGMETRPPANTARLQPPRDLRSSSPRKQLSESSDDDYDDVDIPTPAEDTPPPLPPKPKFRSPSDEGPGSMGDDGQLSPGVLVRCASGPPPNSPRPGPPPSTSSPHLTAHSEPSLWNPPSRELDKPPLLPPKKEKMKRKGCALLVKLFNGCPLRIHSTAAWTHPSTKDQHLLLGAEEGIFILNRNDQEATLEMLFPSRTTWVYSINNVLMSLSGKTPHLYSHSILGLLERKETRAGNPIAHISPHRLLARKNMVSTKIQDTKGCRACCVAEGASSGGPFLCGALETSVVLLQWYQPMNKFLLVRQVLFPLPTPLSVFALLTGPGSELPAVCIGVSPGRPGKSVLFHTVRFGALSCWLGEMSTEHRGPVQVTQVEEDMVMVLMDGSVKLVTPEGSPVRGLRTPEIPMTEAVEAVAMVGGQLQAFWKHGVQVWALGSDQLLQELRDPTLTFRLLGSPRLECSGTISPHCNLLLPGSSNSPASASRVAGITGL
Assay: Assay for in vitro inhibitory activity against HPK1 kinase
Assay type: biochemical
Settings: HPK1 1 ng/μL, ATP 1 mM, STK Substrate 1-biotin 500 nM
MEASURED ATTRIBUTE: IC50 (nM)

| COMPOUND | ASSAY TARGET | UNIT SPEC | ASSAY RESULT |
| --- | --- | --- | --- |
| CN(C)Cc1nc(Nc2ccc(-c3cnc4ccc5occc5n34)c3c2C(=O)NC3)ccc1-c1ccn(C)c(=O)c1 | HPK1 kinase (Homo sapiens (Human), UniProt Q92918) | nM | 2.9 |
| CN(C)Cc1nc(Nc2ccc(-c3cnn4ccc5occc5c34)c3c2C(=O)NC3)ccc1N1CCCC1=O | HPK1 kinase (Homo sapiens (Human), UniProt Q92918) | nM | 5.8 |
| CN(C)Cc1nc(Nc2ccc(-c3cnc4n3C3CC3C4)c3c2C(=O)NC3)ccc1C1CCOCC1 (stereo not shown) | HPK1 kinase (Homo sapiens (Human), UniProt Q92918) | nM | 16 |
| CN(C)Cc1nc(Nc2ccc(-c3ccnc4c3c3c(n4C)CCC3)c3c2C(=O)NC3)ccc1N1CC[C@@H](O)C1 | HPK1 kinase (Homo sapiens (Human), UniProt Q92918) | nM | 5.1 |
| CN(C)Cc1nc(Nc2ccc(-c3cnn4cc5c(nc34)CCC5)c3c2C(=O)NC3)ccc1C1CCOCC1 | HPK1 kinase (Homo sapiens (Human), UniProt Q92918) | nM | 3.6 |
| CN(C)Cc1nc(Nc2ccc(-c3cnn4ccc5occc5c34)c3c2C(=O)NC3)ccc1C1CCN(C)C(=O)C1 (stereo not shown) | HPK1 kinase (Homo sapiens (Human), UniProt Q92918) | nM | 2.8 |
| CN(C)Cc1nc(Nc2ccc(-c3nnc4cc5c(nn34)CCC5)c3c2C(=O)NC3)ccc1C1CCOCC1 | HPK1 kinase (Homo sapiens (Human), UniProt Q92918) | nM | 16 |

---

Target: HPK1 kinase (Homo sapiens (Human))
Experiment: Assay for in vitro inhibitory activity against HPK1 kinase
Format: biochemical
Conditions: HPK1 1 ng/μL, ATP 1 mM, STK Substrate 1-biotin 500 nM
MEASURED ATTRIBUTE: IC50 (nM)

| SAMPLE SMILES | MEASURED ATTRIBUTE | ASSAY RESULT |
| --- | --- | --- |
| CN(C)Cc1nc(Nc2cnc(-c3ccnc4c3c3c(n4C)CCC3)c3c2C(=O)NC3)ccc1C1(O)CCOCC1 | IC50 | 5.6 |
| CN(C)Cc1nc(Nc2ccc(-c3cnc4ccc5c(ccn5C)n34)c3c2C(=O)NC3)ccc1C1CCOCC1 | IC50 | 4.4 |
| CN(C)Cc1nc(Nc2ccc(-c3nnc4ccc5c(n34)OCC5)c3c2C(=O)NC3)ccc1C1CCOCC1 | IC50 | 5.3 |
| CN(C)Cc1nc(Nc2ccc(-c3cnc4ccc5occc5n34)c3c2C(=O)NC3)ccc1C1(O)CCOCC1 | IC50 | 3.4 |
| CN(C)Cc1nc(Nc2cnc(-c3cnc4ccc5sccc5n34)c3c2C(=O)NC3)ccc1C1CCOCC1 | IC50 | 18 |
| CN(C)Cc1nc(Nc2ccc(-c3nnc4ccc5c(n34)CCC5)c3c2C(=O)NC3)ccc1C1CCOCC1 | IC50 | 9.8 |
| CN(C)Cc1nc(Nc2ccc(-c3cnc4ccc5occc5n34)c3c2C(=O)NC3)ccc1[C@H]1CCN(C)C(=O)C1 | IC50 | 3.7 |
| CN(C)Cc1nc(Nc2ccc(-c3cnc4ccc5occc5n34)c3c2C(=O)NC3)ccc1C1CCOCC1 | IC50 | 2 |
| CN(C)Cc1nc(Nc2ccc(-c3cnc4cnc5occc5n34)c3c2C(=O)NC3)ccc1[C@H]1CCN(C)C(=O)C1 | IC50 | 3.7 |

Reference for the values: patent US20250236619A1
